Where do the numbers come from? From the supplement of paper PMC10724198.

system: Saccharomyces cerevisiae; test: protein stability index of tFT-peptide fusion (C-terminal peptide) (PSI (0-1 scale)); higher = more stable (slower turnover); settings: genetic background: das1 deletion; temperature: 37 C;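 also: PSI is a weighted mean of sequencing reads over stability bins, variants kept only with over 10 reads, mCherry proximal and sfGFP distal, peptide attached via GGGS linker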
Label T when protein stability index >= 0.5; otherwise F.

Please review the following examples before continuing.
INSERT INTO measurements (sequence, answer_label) VALUES
  ('PIKIYGYLTTVV', 'T'),
  ('VFWLLVGLGCFS', 'T'),
  ('LSPPPLSFPFSA', 'T'),
  ('FYGVRFLVCVSA', 'F'),
  ('LLRLCGFPLGVG', 'T'),
  ('LFYVCPFVCFLC', 'T'),
  ('LWGLVGVCLVLC', 'F'),
  ('LFFVVFFLLFLL', 'F');

Does the reported protein stability index for `FSCWLFMLCVFL` fall at or above the 0.5 mark?
F

Does the reported protein stability index for `DDESLVGRWRKV` fall at or above the 0.5 mark?
T

Does the reported protein stability index for `LPPPTPRSVLLN` fall at or above the 0.5 mark?
T

Does the reported protein stability index for `VYCLVLFFSQWC` fall at or above the 0.5 mark?
T

Does the reported protein stability index for `LSLVIFIFLYCR` fall at or above the 0.5 mark?
F

Does the reported protein stability index for `GFESTCSLLCVF` fall at or above the 0.5 mark?
F

Does the reported protein stability index for `FLYIPLYCRLSF` fall at or above the 0.5 mark?
F

Does the reported protein stability index for `EMISRNVFTYLS` fall at or above the 0.5 mark?
T

Does the reported protein stability index for `GVLHSKGPWFSG` fall at or above the 0.5 mark?
T

Does the reported protein stability index for `ALLYIVVGWSLS` fall at or above the 0.5 mark?
F

Does the reported protein stability index for `TFVGWIVWLCGS` fall at or above the 0.5 mark?
T
